# measured on: RPS6KA3 KD1 KD2 (human)
# measurement description: radiometric filter-binding kinase assay
# test parameters: compound 1.0 µM
measured endpoint: residual activity (%)

Known residual activity results, listed for orientation:
| compound | residual activity [%] |
| --- | --- |
| CC(C)(C#N)c1ccc(N2C(=O)OCc3cnc4ccc(-c5cnc6ccccc6c5)cc4c32)cc1 | 89 |
| Cc1cc(NC(=O)c2cccc(NC(=O)/C=C/CN(C)C)c2)ccc1Nc1nccc(-c2cccnc2)n1 | 76 |

1: c1ccc2c(-c3cnn4cc(-c5ccc(N6CCNCC6)cc5)cnc34)ccnc2c1
2: NC(=O)c1c(NC(=O)C2CC2)sc2c1CCCC2
3: COc1ccc2c(c1)c1c3c(c4c5ccccc5n(C)c4c1n2CC(O)CN(C)C)C(=O)NC3=O (stereo unspecified)
Query: Give the ascending ranking of the items by reported residual activity. List the labels according to the requested ordering.
Reply: 3, 1, 2
(3: 0%, 1: 69%, 2: 107%)

----------
# measured on: IKBKB (human) (UniProt O14920)
# Sequence (O14920 whole entry, looked up): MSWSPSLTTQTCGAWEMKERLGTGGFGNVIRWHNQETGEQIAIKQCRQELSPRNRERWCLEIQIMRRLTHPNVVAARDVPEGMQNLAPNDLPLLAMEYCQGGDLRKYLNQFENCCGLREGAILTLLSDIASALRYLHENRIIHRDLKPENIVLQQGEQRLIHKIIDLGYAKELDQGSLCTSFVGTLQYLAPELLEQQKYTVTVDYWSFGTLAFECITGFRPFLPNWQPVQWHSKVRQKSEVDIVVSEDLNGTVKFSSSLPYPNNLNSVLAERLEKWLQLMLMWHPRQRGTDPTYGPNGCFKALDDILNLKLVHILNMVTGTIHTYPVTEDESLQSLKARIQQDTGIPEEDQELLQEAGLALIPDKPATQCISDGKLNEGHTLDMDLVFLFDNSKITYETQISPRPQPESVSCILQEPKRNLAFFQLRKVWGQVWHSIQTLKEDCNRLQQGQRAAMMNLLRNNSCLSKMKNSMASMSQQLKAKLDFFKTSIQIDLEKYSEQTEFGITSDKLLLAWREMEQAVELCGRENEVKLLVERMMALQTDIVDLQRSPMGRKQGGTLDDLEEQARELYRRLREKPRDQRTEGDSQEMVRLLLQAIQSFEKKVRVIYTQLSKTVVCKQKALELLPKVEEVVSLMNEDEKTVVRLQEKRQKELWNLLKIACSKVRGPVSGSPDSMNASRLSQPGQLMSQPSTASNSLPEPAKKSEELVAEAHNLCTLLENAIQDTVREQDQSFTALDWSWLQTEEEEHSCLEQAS
# measurement description: radiometric filter-binding kinase assay
# test parameters: compound 10.0 µM
measured endpoint: residual activity (%)

| compound | measured endpoint | units label | experimental result |
| --- | --- | --- | --- |
| O=C(N[C@@H](COc1ccc2[nH]c(=O)[nH]c2c1)c1ccccc1)c1cccn(Cc2ccc(F)c(F)c2)c1=O | residual activity | % | 99 |
| COC(=O)/C=C/C(=O)OC | residual activity | % | 84 |
| Oc1ccc(/C=C/c2cc(O)cc(O)c2)cc1 | residual activity | % | 70 |
| O=C(NOCC(O)CO)c1ccc(F)c(F)c1Nc1ccc(I)cc1Cl (stereo unspecified) | residual activity | % | 89 |
| c1ccc2c(-c3cnn4cc(-c5ccc(N6CCNCC6)cc5)cnc34)ccnc2c1 | residual activity | % | 83 |
| Cc1ccc2c(c1)C(=O)[C@@]1(O)CCN(c3ccccc3)C1=N2 | residual activity | % | 96 |

----------
# measured on: RPS6KA3 KD1 KD2 (human) (UniProt P51812)
# Sequence (P51812 whole entry, looked up): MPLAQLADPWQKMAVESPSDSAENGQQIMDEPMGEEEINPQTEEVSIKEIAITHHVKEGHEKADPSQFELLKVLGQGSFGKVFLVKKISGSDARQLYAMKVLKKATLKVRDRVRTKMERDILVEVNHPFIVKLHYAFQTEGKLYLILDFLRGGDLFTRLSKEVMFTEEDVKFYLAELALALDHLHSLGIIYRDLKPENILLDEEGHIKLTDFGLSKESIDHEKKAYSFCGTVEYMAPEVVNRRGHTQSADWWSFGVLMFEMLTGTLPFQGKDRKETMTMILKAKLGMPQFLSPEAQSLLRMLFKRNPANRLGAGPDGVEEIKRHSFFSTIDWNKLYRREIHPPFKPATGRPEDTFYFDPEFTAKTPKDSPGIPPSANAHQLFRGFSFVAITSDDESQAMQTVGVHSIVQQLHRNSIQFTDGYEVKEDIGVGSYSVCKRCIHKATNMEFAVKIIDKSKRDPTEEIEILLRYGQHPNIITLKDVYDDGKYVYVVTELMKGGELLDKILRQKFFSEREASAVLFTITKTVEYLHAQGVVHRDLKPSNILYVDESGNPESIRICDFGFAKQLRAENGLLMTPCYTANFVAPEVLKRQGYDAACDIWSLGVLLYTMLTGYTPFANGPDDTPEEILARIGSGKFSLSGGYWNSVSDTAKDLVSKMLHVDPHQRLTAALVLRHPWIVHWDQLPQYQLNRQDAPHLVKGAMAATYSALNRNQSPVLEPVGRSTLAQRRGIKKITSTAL
# measurement description: radiometric filter-binding kinase assay
# test parameters: compound 10.0 µM
measured endpoint: residual activity (%)

Known residual activity results, listed for orientation:
| compound | residual activity (%) |
| --- | --- |
| CN1C(=O)[C@@H](Cc2c[nH]c3ccccc23)NC1=S | 92 |
| Oc1ccc(/C=C/c2cc(O)cc(O)c2)cc1 | 72 |
| CCCCCc1ccc(/C=C/[C@H](O)[C@@H](CO)NC)cc1 | 81 |
| C[C@H]1CCCC(=O)CCC/C=C/c2cc(O)cc(O)c2C(=O)O1 | 52 |

A: O=C(NOCC(O)CO)c1ccc(F)c(F)c1Nc1ccc(I)cc1Cl (stereo unspecified)
B: CNc1nc(-c2ccc3c(N)n[nH]c3c2)cc(N2C[C@@H](C(=O)NC3CCCCC3)CC[C@H]2C)n1
Query: Compare residual activity: is it lower for A or for B ? // return label of chosen record
Reply: B
(B: 28%, A: 89%)

----------
# measured on: CaMK1 (human)
# measurement description: radiometric filter-binding kinase assay
# test parameters: compound 10.0 µM
measured endpoint: residual activity (%)

| smiles text | residual activity, % |
| --- | --- |
| CCCCCc1ccc(/C=C/[C@H](O)[C@@H](CO)NC)cc1 | 89 |
| Cn1nc(Nc2ccc(F)cc2)c2c(N)ncnc21 | 97 |
| Cc1nc(-c2ccc(OCC(C)C)c(C#N)c2)sc1C(=O)O | 93 |
